Let's look at some compounds and their measured TGI.
# System: T-47D breast
# Procedure Details: NCI tumour cell line growth inhibition, 48 h
# output: bare number, implied unit µM

Known TGI results, listed for orientation:
Compound: CCCCCCCCCc1cc[n+](CC(=O)c2ccc([N+](=O)[O-])cc2)cc1
Unit Of Measurement: µM
Reading: 3.64
//
Compound: CC#C/C(=N\OC[C@H]1COCCN1)c1ccc2ncnc(Nc3ccc(OCc4cccc(F)c4)c(Cl)c3)c2c1
Unit Of Measurement: µM
Reading: 4.47
//
Compound: CN(C)C/C=C/C(=O)Nc1cc2c(Nc3ccc(F)c(Cl)c3F)ncnc2cc1OCCOC(F)F
Unit Of Measurement: µM
Reading: 0.458
//
Compound: COC1=CC(=O)C(OC)=C(OC)C1=O
Unit Of Measurement: µM
Reading: 32.2
//
Compound: Fc1ccc(-c2ncn(C3CCNCC3)c2-c2ccnc(Oc3ccc(F)c(F)c3)n2)cc1
Unit Of Measurement: µM
Reading: 10.2
//
Compound: CCN(CC)CCCn1c(=O)c2ccccc2n2c3c(=O)n(C)c(=O)n(C)c3nc12
Unit Of Measurement: µM
Reading: 49.8
//
Compound: Nc1nc(Cl)cc(OCC2(CO)CC(OCc3ccccc3)C2)n1 (stereo unspecified)
Unit Of Measurement: µM
Reading: 92.3
//
Compound: COc1ccc(C[C@@H]2NC[C@@H](O)[C@@H]2OC(C)=O)cc1
Unit Of Measurement: µM
Reading: 0.193

Indicate the recorded TGI value for this compound: COc1ccc(/C=C2\CCC(C)/C(=C\c3ccc(OC)c(OC)c3)C2=O)cc1OC (stereo unspecified)
28.2

Indicate the recorded TGI value for this compound: Cn1c(-c2cccs2)cc(-c2cccs2)c1-c1ccco1
12

Indicate the recorded TGI value for this compound: Cc1cc(Nc2c3ccccc3nc3ccccc23)ccc1NS(C)(=O)=O
24.5

====

# System: NCI-H23 lung
# Procedure Details: NCI tumour cell line growth inhibition, 48 h; in the data active means GI50 below about 0.43 µM; inactive means the rest
Hi there, use one of these labels in your reply, thanks! active, inactive

Compound: COc1cc2c3c(n(CCCNCCCNCCCNCCCN)c(=O)c2cc1OC)-c1cc2c(cc1C3=O)OCO2
Target Of Assay: NCI-H23 lung
Answer Label: inactive

Compound: CCN(CC)CCCC(C)Nc1nc(C)cc(Nc2ccc3nc(C)cc(N)c3c2)n1 (centres undefined)
Target Of Assay: NCI-H23 lung
Answer Label: inactive

Compound: CN1C(=O)[C@@H](NC(=O)[C@H](CCC(F)(F)F)[C@H](CCC(F)(F)F)C(N)=O)N=C(c2ccccc2)c2ccccc21
Target Of Assay: NCI-H23 lung
Answer Label: inactive

Compound: O=C(Nc1ccccc1O)c1ccc(CNc2ccnc(C(F)(F)F)c2)cc1
Target Of Assay: NCI-H23 lung
Answer Label: inactive

Compound: Nc1nc2cc3ccc(C4CC(O)C(CO)O4)cc3cc2c(=O)[nH]1 (centres undefined)
Target Of Assay: NCI-H23 lung
Answer Label: inactive

Outcome logged for COC1C(O)C(C)OC(OC2C(Oc3cccc4c(O)c5c(=O)oc6ccc(C)c7c(=O)oc(c34)c5c67)OC(C)C(O)C2O)C1O (centres undefined) in this assay:
inactive

Outcome logged for Cc1nc([C@H]2CC[C@H]3[C@@H]4CCC5=CC(=O)CC[C@]5(C)[C@H]4CC[C@]23C)cs1 in this assay:
inactive

Outcome logged for Clc1ccc(C2=Nn3c(nnc3-c3cc(Cl)cc(Cl)c3Cl)SC2)cc1 in this assay:
inactive

Outcome logged for Cc1cc2cn3c4ccc(O)cc4[nH]c(=O)c3c2cc1C in this assay:
active

====

# Tested on: M14 melanoma
# Procedure Details: NCI tumour cell line growth inhibition, 48 h
Let's look at some molecules and their measured TGI.

Molecule: C#CCN(N=O)C(=O)NC(CCCNC(=O)OCc1ccccc1)C(=O)OCc1ccccc1 (stereo unspecified)
Reading: > 100 µM
--
Molecule: CCOC(=O)Cc1csc2[n+]1C(=O)/C(=C\c1cccc(Cl)c1Cl)S2
Reading: 85.1 µM
--
Molecule: O=C(Nc1cccc(Cc2cccc(NC(=O)c3ccccc3)c2)c1)c1ccccc1
Reading: > 100 µM
--
Molecule: Brc1c(C#CCC(c2ccccc2)(c2ccccc2)c2ccccc2)ccc(C#CCC(c2ccccc2)(c2ccccc2)c2ccccc2)c1Br
Reading: > 100 µM
--
Molecule: O=C(CC1(O)C(=O)Nc2ccccc21)c1ccco1 (stereo unspecified)
Reading: > 100 µM

Indicate the recorded TGI value for this molecule: CCOc1ccc(NC(=O)/C(=N\NC(C)(C)C)C2C(=O)Nc3ccccc3S2=O)cc1 (stereo unspecified)
> 100 µM

====

# System: HOP-92 NSCLC
# Procedure Details: NCI tumour cell line growth inhibition, 48 h
Let's look at some compounds and their measured TGI.

Query Smiles: OC[C@]1(n2nc3ccccc3n2)OC[C@@H]1c1ccccc1
Measured Attribute: TGI
Reading: > 100 µM

Query Smiles: Cc1nc(C(N)=S)sc1C(/C=C/c1ccc(Cl)c(Cl)c1)=N/NC(C)(C)C
Measured Attribute: TGI
Reading: > 100 µM

Query Smiles: COC(=O)Nc1nc2ccc(C(=O)c3ccc(N(C)C4COC4)cc3)cc2[nH]1
Measured Attribute: TGI
Reading: 45.9 µM

Query Smiles: O=C(N/N=C/c1ccc([N+](=O)[O-])o1)c1ccc(C(=O)N/N=C/c2ccc([N+](=O)[O-])o2)cc1
Measured Attribute: TGI
Reading: > 100 µM

Next item in the queue.
Give TGI for O=Cc1ccc(-c2ccc(-c3nc4ccccc4o3)cc2)s1 tested on HOP-92 NSCLC.
> 100 µM

====

# Test system: OVCAR-3 ovarian
# Procedure Details: NCI tumour cell line growth inhibition, 48 h
Let's look at some compounds and their measured TGI.

Known TGI results, listed for orientation:
Compound: O=C(Nc1cc2c(=O)oc3ccccc3c2oc1=O)c1cccnc1
TGI: > 100 µM
--
Compound: O=C(/C=C/C=C/c1c(C2CC2)nc2ccccc2c1-c1ccc(F)cc1)c1cccs1
TGI: 4.99 µM
--
Compound: CN(C)Cc1cc(C(C)(C)C)ccc1-c1ccc(C(C)(C)C)cc1CN(C)C
TGI: > 100 µM

Give TGI for CCn1cc(-c2ccnc3[nH]ccc23)c(-c2cccc(NC(=O)Nc3ccc(OCc4ccccc4)cc3)c2)n1 tested on OVCAR-3 ovarian.
19.6 µM

Give TGI for COc1cc(NC(C)=O)ccc1C(=O)NN1C(=O)C(Cl)C1c1ccco1 (stereo not given) tested on OVCAR-3 ovarian.
> 100 µM

Give TGI for O/N=C1/C(=C/c2ccc(Oc3ccccc3)cc2)CCCC1C(NO)c1ccc(Oc2ccccc2)cc1 (stereo not given) tested on OVCAR-3 ovarian.
> 100 µM

Give TGI for CCN(CC)C(=S)SS(=O)(=O)c1ccc(Cl)cc1 tested on OVCAR-3 ovarian.
> 100 µM

Give TGI for COc1cc(/C=C/c2cc(/C=C/c3ccc(O)c(OC)c3)nc(N)n2)ccc1O tested on OVCAR-3 ovarian.
8.62 µM

====

# Test system: UO-31 renal
# Procedure Details: NCI tumour cell line growth inhibition, 48 h; in the data active = GI50 below about 0.43 µM; inactive = the rest
Hi there, use one of these labels in your reply, thanks! active, inactive

Compound: NCCN.NCCN.O=C[O-].O=C[O-].[Co+3].[O-][Cl+3]([O-])([O-])[O-]
Answer Label: inactive

Outcome logged for S=C(Nc1ccc(Cl)cc1)Nc1ccc(-c2nc3ccccc3o2)cc1 in this assay:
inactive

Outcome logged for CCn1cc(-c2ccnc3[nH]ccc23)c(-c2cccc(NC(=O)Nc3ccc(OCc4ccccc4)cc3)c2)n1 in this assay:
inactive

Outcome logged for OC(COc1ccc(F)cc1)Cn1cnc2c(Cl)ncnc21 (stereo not given) in this assay:
inactive

Outcome logged for CC(=O)[O-].[Mn+3].[O-]c1ccccc1C=NCCN=Cc1ccccc1[O-] in this assay:
inactive

Outcome logged for COc1cc2c3c(n(CCCNCCCNCCCNCCCN)c(=O)c2cc1OC)-c1cc2c(cc1C3=O)OCO2 in this assay:
inactive

Outcome logged for CC(C)CC(=O)Nc1n[nH]c2c1CN(C(=O)C1CCN(C)CC1)C2(C)C in this assay:
inactive

====

# Tested on: CCRF-CEM leukemia
# Procedure Details: NCI tumour cell line growth inhibition, 48 h
Let's look at some molecules and their measured TGI.

Known TGI results, listed for orientation:
Molecule: CC(C)(C)NC(=O)NC12CC3CC(CC(F)(C3)C1)C2
TGI: > 100 µM

Molecule: Cc1ccc([N+](=O)[O-])cc1S(=O)(=O)Nc1ccc(C2=NNC(c3ccccc3O)C2)cc1 (stereo not given)
TGI: > 100 µM

Molecule: O=C1c2ccccc2NC1(c1ccccc1)c1c(-c2ccccc2)[nH]c2ccccc12 (stereo not given)
TGI: > 100 µM

Molecule: Nc1nc2cc3ccc(C4CC(O)C(CO)O4)cc3cc2c(=O)[nH]1 (stereo not given)
TGI: > 100 µM

Molecule: C=C1C(=O)OC2/C=C(/C)C3CC(O)C(C)(CC(OC(=O)/C(C)=C/C)C12)O3 (stereo not given)
TGI: 8.1 µM

Molecule: CC(C)C1CC2C(=O)N(c3ccccc3)C(=O)C2c2[nH]c3ccccc3c21 (stereo not given)
TGI: 54.3 µM

Molecule: COc1cc(C(=O)O[C@@H]2[C@@H](OC(=O)c3cc(OC)c(OC)c(OC)c3)[C@@H](OC)O[C@@H]3CO[C@@H](c4ccccc4)O[C@@H]23)cc(OC)c1OC
TGI: > 100 µM

Molecule: O=C(/C=C1\C[C@H]2C=Nc3ccccc3C(=O)N2C1)NCCCCNC(=O)/C=C1\C[C@H]2C=Nc3ccccc3C(=O)N2C1
TGI: 4.82 µM

Molecule: Cc1ccc(C2NC(=O)c3ccccc3N2)s1 (stereo not given)
TGI: > 100 µM

Indicate the recorded TGI value for this molecule: Cc1oc(N)c(S(=O)(=O)c2ccc(Cl)cc2)c1C
> 100 µM
